# Tested on: cancer patients
# protocol_summary: Test Example 4: correlation between vaccination with individual peptides (or peptide sets) and OS, Cox proportional hazards regression
# Format: in vivo, human
# condition_set: Table 18; all 2,588 cases; median OS of patients under PPV not containing the peptide
The reader will find reported Non-vaccinate cases (mOS) values listed item by item below.

Quote Non-vaccinate cases (mOS) reported for ILGELREKV (listed as Homo sapiens) [WHSC2-141] please.
725(11.1) M

Quote Non-vaccinate cases (mOS) reported for LYCESVHNF (listed as Homo sapiens) [PAP-213] please.
1271(11.4) M

Quote Non-vaccinate cases (mOS) reported for GIHKQKEKSR (listed as Homo sapiens) [PAP-248] please.
1,067(11.1) M

Quote Non-vaccinate cases (mOS) reported for RYLTQETNKV (listed as Homo sapiens) [PTHrP-102] please.
1,346(11.9) M

Quote Non-vaccinate cases (mOS) reported for KYVGIEREM (listed as Homo sapiens) [EZH2-735] please.
1,481(11.9) M

More entries:
Quote Non-vaccinate cases (mOS) reported for TYSVSFDSL (listed as Homo sapiens) [PSMA-624] please.
1,449(12.0) M

Quote Non-vaccinate cases (mOS) reported for AYDFLYNYL (listed as Homo sapiens) [SART2-161] please.
13,552(11.9) M

Quote Non-vaccinate cases (mOS) reported for ASLDSDPWV (listed as Homo sapiens) [WHSC2-103] please.
1,465(11.6) M
